These measurements were taken from patent US20180086804A1.

- Target Entity: T1, HLA-DR4 (HLA-DRB1*04:01) (human)
- T1 construct: mature; purified from homozygous EBV-transformed lymphoblastoid cells with antibody L243
- Method: competition ELISA vs biotin-HA 306-318;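 further: HLA and competitor incubated 24 to 72 h, maximal signal taken from wells lacking competitor, background from wells lacking HLA molecule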
No end group written: not given here.
Assay Metric: relative affinity

Example results:
binder="GNMRAILIDWLVQVQ-NH2 [CCNB1 199-213]" assay_metric="relative affinity" result=56
binder="TAMFIASKYEEMYPP-NH2 [CCNB1 250-264]" assay_metric="relative affinity" result=70
binder="MTVSIIDRFMQNNCV-NH2 [CCNB1 225-239]" assay_metric="relative affinity" result=100

Requested read-out: relative affinity. Entry: FRLLQETMYMTVSII-NH2 [CCNB1 216-230]
2

Recorded relative affinity of ETMYMTVSIIDRFMQ-NH2 [CCNB1 221-235] , please.
37

Requested field: relative affinity. Item: PTLQHYLSYTEESLL-NH2 [CCNB1 363-377]
76

For GDFAFVTDNTYTKHQ-NH2 [CCNB1 267-281] , what is its reported relative affinity?
1

Could you tell me which relative affinity is on file for RAILIDWLVQVQMKF-NH2 [CCNB1 202-216] ?
59

Which relative affinity is reported for this binder? RPLPLHFLRRASKIG-NH2 [CCNB1 299-313]
624

I'd like to know its relative affinity. The binder in question is QHYLSYTEESLLPVM-NH2 [CCNB1 366-380]
65

Please report the recorded relative affinity for KKMLQLVGVTAMFIA-NH2 [CCNB1 241-255] .
1

Suppose we examine the binder VQMKFRLLQETMYMT-NH2 [CCNB1 212-226] ; what relative affinity value has been reported?
2
